- target-system: HDAC1 (Homo sapiens, UniProt Q13547)
- Construct: purchased Enzo Life Sciences
- Sequence (Q13547 whole entry): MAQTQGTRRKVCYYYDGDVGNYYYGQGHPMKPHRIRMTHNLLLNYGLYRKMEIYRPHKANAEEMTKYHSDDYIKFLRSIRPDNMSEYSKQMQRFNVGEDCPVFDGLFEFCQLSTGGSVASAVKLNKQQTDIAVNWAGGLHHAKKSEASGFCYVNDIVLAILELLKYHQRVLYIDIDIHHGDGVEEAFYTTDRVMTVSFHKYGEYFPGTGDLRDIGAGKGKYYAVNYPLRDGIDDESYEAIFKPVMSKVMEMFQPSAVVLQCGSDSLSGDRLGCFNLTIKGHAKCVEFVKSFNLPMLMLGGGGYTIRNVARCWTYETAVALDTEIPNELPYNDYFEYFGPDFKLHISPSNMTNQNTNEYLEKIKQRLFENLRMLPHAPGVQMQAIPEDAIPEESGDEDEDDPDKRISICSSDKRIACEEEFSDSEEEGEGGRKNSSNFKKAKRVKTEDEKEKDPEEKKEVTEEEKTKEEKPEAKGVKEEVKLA
- assay-protocol: HDAC Inhibition Screening Assay (FLUOR DE LYS Fluorimetric Drug Discovery Kit), HDAC1
- Type: biochemical
- study-conditions: 10 μM compound
parameter-measured: inhibition at 10 µM

Previously resolved entries follow.
[[record]]
molecule = "O=C(CCCCCNC(=O)COc1ccc2c(c1)CC/C(=C\\c1cc(C(F)(F)F)cc(C(F)(F)F)c1)C2=O)NO"
result = "> 80%"

[[record]]
molecule = "O=C(/C=C/c1ccc2c(c1)CC/C(=C\\c1cc(C(F)(F)F)cc(C(F)(F)F)c1)C2=O)NO"
result = "< 50%"

[[record]]
molecule = "O=C(CCCCCCC(=O)Nc1ccc2c(c1)CCCC2=O)NO"
result = "> 80%"


Provide the reported inhibition at 10 µM of each entry below, same order.
1. Cc1[nH]c2ccccc2c1CCNC1CCc2cc(/C=C/C(=O)Nc3ccc(F)cc3N)ccc21 (centres unmarked)
2. CN(C)c1ccc(C(=O)NC2CCc3cc(/C=C/C(=O)NO)ccc32)cc1 (centres unmarked)
3. COc1ccc(CCNC2CCc3cc(/C=C/C(=O)NO)ccc32)cc1 (centres unmarked)

Ans.
> 80%
> 80%
> 80%

Provide the reported inhibition at 10 µM of each entry below, same order.
1. Nc1ccccc1NC(=O)c1ccc(COc2ccc3c(c2)CC/C(=C\c2cc(C(F)(F)F)cc(C(F)(F)F)c2)C3=O)cc1
2. O=C(/C=C/c1ccc(COc2ccc3c(c2)CCC(Cc2cc(C(F)(F)F)cc(C(F)(F)F)c2)C3=O)cc1)NO (centres unmarked)
3. Nc1cc(F)ccc1NC(=O)CCCCC(=O)N1CCN(C(=O)c2ccc3c(c2)CC/C(=C\c2cc(C(F)(F)F)cc(C(F)(F)F)c2)C3=O)CC1
4. CCN(CC)c1ccc(C(=O)NC2CCc3cc(/C=C/C(=O)Nc4ccc(F)cc4N)ccc32)cc1 (centres unmarked)
5. COc1ccc2c(c1)CCC2NC(=O)CCCCCCC(=O)Nc1ccc(F)cc1N (centres unmarked)
6. COc1ccc(C(=O)NC2CCc3cc(/C=C/C(=O)NO)ccc32)cc1 (centres unmarked)

Ans.
1. < 50%
2. < 50%
3. < 50%
4. < 50%
5. < 50%
6. > 80%

Provide the reported inhibition at 10 µM of each entry below, same order.
1. O=C(/C=C/c1ccc2c(c1)CCC2NC(=O)OCc1cc(C(F)(F)F)cc(C(F)(F)F)c1)NO (centres unmarked)
2. O=C(/C=C/c1ccc2c(c1)CCC2NCCc1cc(C(F)(F)F)cc(C(F)(F)F)c1)NO (centres unmarked)

Ans.
["50 to 80%", "> 80%"]
